Assay system: PI3-kinase p110-delta/p85-alpha (Homo sapiens, UniProt O00329)
Sequence (O00329 whole entry, one chain of several): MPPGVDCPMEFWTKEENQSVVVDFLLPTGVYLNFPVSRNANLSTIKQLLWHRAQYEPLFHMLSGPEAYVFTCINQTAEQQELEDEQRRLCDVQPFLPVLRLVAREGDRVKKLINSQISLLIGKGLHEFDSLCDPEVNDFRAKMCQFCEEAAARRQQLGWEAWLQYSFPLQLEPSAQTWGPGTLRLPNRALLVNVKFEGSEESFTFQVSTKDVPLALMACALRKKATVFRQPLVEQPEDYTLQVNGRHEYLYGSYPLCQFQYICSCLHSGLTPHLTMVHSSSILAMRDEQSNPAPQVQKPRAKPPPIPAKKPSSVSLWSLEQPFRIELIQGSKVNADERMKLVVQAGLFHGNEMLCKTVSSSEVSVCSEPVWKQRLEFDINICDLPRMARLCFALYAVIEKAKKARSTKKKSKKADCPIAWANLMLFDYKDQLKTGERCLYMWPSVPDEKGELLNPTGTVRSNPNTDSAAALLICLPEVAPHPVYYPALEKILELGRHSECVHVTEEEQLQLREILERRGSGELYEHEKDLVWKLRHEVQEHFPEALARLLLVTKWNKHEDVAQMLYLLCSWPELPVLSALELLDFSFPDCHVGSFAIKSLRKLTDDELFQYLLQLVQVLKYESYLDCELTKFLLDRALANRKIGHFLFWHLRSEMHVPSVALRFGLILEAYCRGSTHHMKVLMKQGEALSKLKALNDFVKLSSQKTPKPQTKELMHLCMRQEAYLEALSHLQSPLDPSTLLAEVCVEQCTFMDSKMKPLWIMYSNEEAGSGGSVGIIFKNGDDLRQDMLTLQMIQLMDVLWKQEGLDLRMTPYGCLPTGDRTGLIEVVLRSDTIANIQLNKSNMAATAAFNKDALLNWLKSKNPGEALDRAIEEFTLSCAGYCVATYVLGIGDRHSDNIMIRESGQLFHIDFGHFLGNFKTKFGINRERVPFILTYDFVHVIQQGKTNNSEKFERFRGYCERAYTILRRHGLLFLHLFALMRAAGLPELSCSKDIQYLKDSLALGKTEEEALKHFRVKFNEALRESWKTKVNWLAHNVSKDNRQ
Assay text: Inhibition of recombinant PI3K p110delta/p85alpha (unknown origin) using phosphotidylinositol as susbstrate after 1 hr by thin layer paper chromatographic analysis in presence of [gamma-33P]ATP
Outcome measure: IC50 (nM)
Give bare numbers, in nM.

CN(C)CCNc1cccc2c1nc(C(F)F)n2-c1nc(N2CCOCC2)nc(N2CCOCC2)n1: 15
NCCCOc1cccc2c1nc(C(F)F)n2-c1nc(N2CCOCC2)nc(N2CCOCC2)n1: 28
O=C(O)COc1cccc2c1nc(C(F)F)n2-c1nc(N2CCOCC2)nc(N2CCOCC2)n1: 39
CN(C)CC(O)COc1cccc2c1nc(C(F)F)n2-c1nc(N2CCOCC2)nc(N2CCOCC2)n1 (configuration not stated): 13
NCC(=O)Nc1cccc2c1nc(C(F)F)n2-c1nc(N2CCOCC2)nc(N2CCOCC2)n1: 52
CN(C)CC(=O)Nc1cccc2c1nc(C(F)F)n2-c1nc(N2CCOCC2)nc(N2CCOCC2)n1: 99

// each listed molecule needs a value for IC50
1. CN(C)CCC(=O)Nc1cccc2c1nc(C(F)F)n2-c1nc(N2CCOCC2)nc(N2CCOCC2)n1
2. NCCOc1cccc2c1nc(C(F)F)n2-c1nc(N2CCOCC2)nc(N2CCOCC2)n1
3. CN(C)CCOc1cccc2c1nc(C(F)F)n2-c1nc(N2CCOCC2)nc(N2CCOCC2)n1
4. OC(COc1cccc2c1nc(C(F)F)n2-c1nc(N2CCOCC2)nc(N2CCOCC2)n1)CN1CCOCC1 (configuration not stated)
5. CN(C)CCCOc1cccc2c1nc(C(F)F)n2-c1nc(N2CCOCC2)nc(N2CCOCC2)n1
6. OCCOc1cccc2c1nc(C(F)F)n2-c1nc(N2CCOCC2)nc(N2CCOCC2)n1

Output:
112
20
19
5.5
4.5
2.6

----------
Assay text: AUC (infinity) in C57 mouse at 10 mg/kg, ip
Format: ADME, organism-based
Parameters: dose 10 mg/kg, route intraperitoneal, time infinity
Setup conditions: plasma
Outcome measure: AUC(0-inf) (µM·h)
Give bare numbers, in µM·h.

Input: Looking for the measured AUC(0-inf) of CN(C)CCCOc1cccc2c1nc(C(F)F)n2-c1nc(N2CCOCC2)nc(N2CCOCC2)n1 , can you help?
Output: 2.59

----------
Assay system: Phosphatidylinositol 4,5-bisphosphate 3-kinase catalytic subunit alpha isoform (Homo sapiens, UniProt P42336, H1047R)
Sequence (P42336 whole entry H1047R, canonical isoform): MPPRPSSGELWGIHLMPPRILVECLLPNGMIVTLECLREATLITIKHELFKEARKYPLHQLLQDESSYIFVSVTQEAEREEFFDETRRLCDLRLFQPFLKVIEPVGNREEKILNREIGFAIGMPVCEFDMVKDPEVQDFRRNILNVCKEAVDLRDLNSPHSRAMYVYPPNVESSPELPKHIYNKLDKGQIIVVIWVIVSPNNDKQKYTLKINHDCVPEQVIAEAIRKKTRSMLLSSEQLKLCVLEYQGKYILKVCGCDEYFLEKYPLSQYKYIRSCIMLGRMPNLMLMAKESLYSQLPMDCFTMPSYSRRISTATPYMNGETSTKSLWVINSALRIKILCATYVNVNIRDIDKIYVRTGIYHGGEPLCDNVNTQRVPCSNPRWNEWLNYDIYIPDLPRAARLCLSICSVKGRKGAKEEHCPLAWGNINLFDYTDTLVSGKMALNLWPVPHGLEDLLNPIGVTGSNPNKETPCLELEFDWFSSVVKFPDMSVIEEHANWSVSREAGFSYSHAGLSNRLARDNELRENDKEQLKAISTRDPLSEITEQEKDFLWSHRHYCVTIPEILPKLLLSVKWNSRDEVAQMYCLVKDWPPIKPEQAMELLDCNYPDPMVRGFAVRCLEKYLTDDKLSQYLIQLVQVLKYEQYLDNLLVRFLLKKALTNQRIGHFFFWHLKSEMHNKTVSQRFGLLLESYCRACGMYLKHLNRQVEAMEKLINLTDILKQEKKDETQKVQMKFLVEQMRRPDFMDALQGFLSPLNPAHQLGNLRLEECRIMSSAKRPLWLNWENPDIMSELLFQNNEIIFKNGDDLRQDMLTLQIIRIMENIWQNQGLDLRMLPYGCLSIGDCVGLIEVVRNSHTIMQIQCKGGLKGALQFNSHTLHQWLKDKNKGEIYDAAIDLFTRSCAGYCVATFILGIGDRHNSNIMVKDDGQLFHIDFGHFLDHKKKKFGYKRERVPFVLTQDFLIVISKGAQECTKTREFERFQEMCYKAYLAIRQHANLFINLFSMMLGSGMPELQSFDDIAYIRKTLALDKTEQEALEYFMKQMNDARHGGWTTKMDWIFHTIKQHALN
Assay text: Inhibition of PI3K p110alpha H1047R mutant in human HCT116 cells assessed as inhibition of AKT/PKB phosphorylation at Ser473 incubated for 15 mins prior to insulin stimulation measured after 5 mins by immunoblot analysis
Type: cell-based, HCT-116
Outcome measure: IC50 (nM)
One number for each entry, in nM.

Input: Tell me the measured IC50 of CN(C)CCCOc1cccc2c1nc(C(F)F)n2-c1nc(N2CCOCC2)nc(N2CCOCC2)n1 , please.
Output: 36

----------
Assay text: Aqueous solubility of the compound in water by HPLC analysis
Format: physicochemical
Outcome measure: solubility (mg/mL)
Give bare numbers, in mg/mL.

Input: Param item = CN(C)CCCOc1cccc2c1nc(C(F)F)n2-c1nc(N2CCOCC2)nc(N2CCOCC2)n1.Cl ; retrieve measured solubility.
Output: 25

----------
Assay text: Tmax in C57 mouse at 10 mg/kg, ip
Type: ADME, organism-based
Parameters: dose 10 mg/kg, route intraperitoneal
Setup conditions: in vivo
Outcome measure: Tmax (min)
Answers are plain numbers, in min.

Input: Tell me the measured Tmax of CN(C)CCCOc1cccc2c1nc(C(F)F)n2-c1nc(N2CCOCC2)nc(N2CCOCC2)n1 , please.
Output: 15

----------
Assay text: Cmax in C57 mouse at 10 mg/kg, ip
Type: ADME, organism-based
Design: dose 10 mg/kg, route intraperitoneal
Setup conditions: in vivo
Outcome measure: Cmax (µM)
Give bare numbers, in µM.

Input: Need Cmax, item CN(C)CCCOc1cccc2c1nc(C(F)F)n2-c1nc(N2CCOCC2)nc(N2CCOCC2)n1
Output: 1.94

----------
Assay system: PI3K p110 beta/p85 alpha (Homo sapiens, UniProt P42338)
Sequence (P27986 whole entry): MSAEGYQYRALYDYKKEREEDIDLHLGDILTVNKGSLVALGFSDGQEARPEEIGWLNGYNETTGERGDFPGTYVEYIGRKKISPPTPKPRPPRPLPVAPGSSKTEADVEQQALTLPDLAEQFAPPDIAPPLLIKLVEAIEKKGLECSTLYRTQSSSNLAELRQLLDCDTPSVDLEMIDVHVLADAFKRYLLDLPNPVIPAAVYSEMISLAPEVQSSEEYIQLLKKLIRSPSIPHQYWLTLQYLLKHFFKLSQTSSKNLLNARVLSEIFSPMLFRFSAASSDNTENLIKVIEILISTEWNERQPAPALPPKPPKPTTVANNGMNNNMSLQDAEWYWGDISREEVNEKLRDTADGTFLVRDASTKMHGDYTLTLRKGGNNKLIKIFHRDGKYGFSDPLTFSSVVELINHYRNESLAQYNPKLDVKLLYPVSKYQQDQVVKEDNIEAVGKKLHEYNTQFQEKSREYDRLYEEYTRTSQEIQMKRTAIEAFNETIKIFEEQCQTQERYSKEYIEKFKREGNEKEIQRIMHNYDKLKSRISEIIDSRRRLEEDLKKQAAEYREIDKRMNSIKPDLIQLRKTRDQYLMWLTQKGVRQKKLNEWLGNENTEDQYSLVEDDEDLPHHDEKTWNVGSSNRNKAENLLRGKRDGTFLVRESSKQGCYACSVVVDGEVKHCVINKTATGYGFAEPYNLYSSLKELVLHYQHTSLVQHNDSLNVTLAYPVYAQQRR
Sequence (P42338 whole entry): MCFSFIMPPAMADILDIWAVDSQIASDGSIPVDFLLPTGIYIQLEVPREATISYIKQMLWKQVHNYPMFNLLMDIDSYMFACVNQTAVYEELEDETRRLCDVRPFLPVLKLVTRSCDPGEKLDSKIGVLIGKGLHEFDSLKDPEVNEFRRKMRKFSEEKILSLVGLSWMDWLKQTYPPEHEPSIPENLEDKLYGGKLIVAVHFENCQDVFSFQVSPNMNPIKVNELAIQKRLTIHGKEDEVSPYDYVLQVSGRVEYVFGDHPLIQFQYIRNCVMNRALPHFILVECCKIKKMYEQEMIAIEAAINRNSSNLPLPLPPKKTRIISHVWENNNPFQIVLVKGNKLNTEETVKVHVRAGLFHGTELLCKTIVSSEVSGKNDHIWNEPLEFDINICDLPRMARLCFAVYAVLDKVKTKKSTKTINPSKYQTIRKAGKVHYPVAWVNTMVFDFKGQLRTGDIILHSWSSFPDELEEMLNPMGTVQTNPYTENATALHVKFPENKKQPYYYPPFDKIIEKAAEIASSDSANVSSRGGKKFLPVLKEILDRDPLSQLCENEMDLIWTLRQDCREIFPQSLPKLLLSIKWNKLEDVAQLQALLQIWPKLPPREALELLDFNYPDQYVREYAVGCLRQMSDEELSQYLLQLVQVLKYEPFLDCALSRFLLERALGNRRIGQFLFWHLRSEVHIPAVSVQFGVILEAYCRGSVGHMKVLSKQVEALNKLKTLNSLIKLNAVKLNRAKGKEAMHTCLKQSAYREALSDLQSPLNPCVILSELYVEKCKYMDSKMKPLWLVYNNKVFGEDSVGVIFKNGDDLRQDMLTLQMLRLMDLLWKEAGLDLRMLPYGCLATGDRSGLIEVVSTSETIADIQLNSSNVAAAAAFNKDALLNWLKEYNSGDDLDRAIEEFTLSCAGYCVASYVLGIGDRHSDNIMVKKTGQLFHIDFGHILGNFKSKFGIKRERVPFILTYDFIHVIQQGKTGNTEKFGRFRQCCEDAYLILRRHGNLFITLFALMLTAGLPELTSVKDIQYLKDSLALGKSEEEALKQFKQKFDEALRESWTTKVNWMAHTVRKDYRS
Assay text: Inhibition of recombinant PI3K p110beta/p85alpha (unknown origin) using phosphotidylinositol as susbstrate after 1 hr by thin layer paper chromatographic analysis in presence of [gamma-33P]ATP
Outcome measure: IC50

Past entries and their recorded results:
CN(C)CCCOc1cccc2c1nc(C(F)F)n2-c1nc(N2CCOCC2)nc(N2CCOCC2)n1: 7.3 nM
FC(F)c1nc2c(OCCCN3CCOCC3)cccc2n1-c1nc(N2CCOCC2)nc(N2CCOCC2)n1: 76 nM
FC(F)c1nc2c(OCCN3CCOCC3)cccc2n1-c1nc(N2CCOCC2)nc(N2CCOCC2)n1: 150 nM
O=C(O)COc1cccc2c1nc(C(F)F)n2-c1nc(N2CCOCC2)nc(N2CCOCC2)n1: 274 nM

Please state, for each entry, its recorded IC50.
1. CN(C)CCOc1cccc2c1nc(C(F)F)n2-c1nc(N2CCOCC2)nc(N2CCOCC2)n1
2. NCCOc1cccc2c1nc(C(F)F)n2-c1nc(N2CCOCC2)nc(N2CCOCC2)n1

Output:
1: 105 nM; 2: 130 nM

----------
Assay system: PI3-kinase p110-alpha/p85-alpha (Homo sapiens, UniProt P42336)
Sequence (P27986 whole entry): as the sequence (P27986 whole entry) above
Sequence (P42336 whole entry): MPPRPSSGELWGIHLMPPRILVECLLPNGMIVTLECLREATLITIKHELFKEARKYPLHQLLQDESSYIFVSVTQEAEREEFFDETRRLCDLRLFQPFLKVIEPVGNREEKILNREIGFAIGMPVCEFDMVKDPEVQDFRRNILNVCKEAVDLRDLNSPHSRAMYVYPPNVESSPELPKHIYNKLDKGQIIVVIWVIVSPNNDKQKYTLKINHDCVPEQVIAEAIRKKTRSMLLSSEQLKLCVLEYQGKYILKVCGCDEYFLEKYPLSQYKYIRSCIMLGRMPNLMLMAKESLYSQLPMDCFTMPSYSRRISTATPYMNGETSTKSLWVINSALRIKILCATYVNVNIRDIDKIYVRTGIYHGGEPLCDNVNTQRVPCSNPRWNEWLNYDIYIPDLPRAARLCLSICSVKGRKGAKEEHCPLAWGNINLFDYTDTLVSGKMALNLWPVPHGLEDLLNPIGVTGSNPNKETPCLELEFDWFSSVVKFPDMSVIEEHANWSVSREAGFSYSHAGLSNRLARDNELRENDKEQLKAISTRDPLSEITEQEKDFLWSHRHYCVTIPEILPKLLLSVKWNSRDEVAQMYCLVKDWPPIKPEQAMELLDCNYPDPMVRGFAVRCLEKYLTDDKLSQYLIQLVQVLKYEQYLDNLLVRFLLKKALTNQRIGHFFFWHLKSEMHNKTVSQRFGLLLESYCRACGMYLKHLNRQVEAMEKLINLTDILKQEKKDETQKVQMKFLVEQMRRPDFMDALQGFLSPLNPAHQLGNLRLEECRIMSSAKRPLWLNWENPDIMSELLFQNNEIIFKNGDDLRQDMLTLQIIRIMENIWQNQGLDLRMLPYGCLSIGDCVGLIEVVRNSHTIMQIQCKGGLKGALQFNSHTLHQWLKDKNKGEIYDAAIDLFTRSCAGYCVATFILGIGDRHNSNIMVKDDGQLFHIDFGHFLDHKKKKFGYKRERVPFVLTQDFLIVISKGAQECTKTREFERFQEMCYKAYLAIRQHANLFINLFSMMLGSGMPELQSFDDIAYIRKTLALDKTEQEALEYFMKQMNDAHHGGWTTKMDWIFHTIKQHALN
Assay text: Inhibition of recombinant PI3K p110alpha/p85alpha (unknown origin) using phosphotidylinositol as susbstrate after 1 hr by thin layer paper chromatographic analysis in presence of [gamma-33P]ATP
pIC50: −log10 of the molar value.
Each entry gets Not fulfilled if its pIC50 stays under 7, and Fulfilled if its pIC50 is 7 or above.

Examples with answers:
CN(C)CC(=O)Nc1cccc2c1nc(C(F)F)n2-c1nc(N2CCOCC2)nc(N2CCOCC2)n1: Not fulfilled
OCCOc1cccc2c1nc(C(F)F)n2-c1nc(N2CCOCC2)nc(N2CCOCC2)n1: Fulfilled
OC(COc1cccc2c1nc(C(F)F)n2-c1nc(N2CCOCC2)nc(N2CCOCC2)n1)CN1CCOCC1 (centres undefined): Fulfilled
NCCOc1cccc2c1nc(C(F)F)n2-c1nc(N2CCOCC2)nc(N2CCOCC2)n1: Fulfilled
O=C(O)COc1cccc2c1nc(C(F)F)n2-c1nc(N2CCOCC2)nc(N2CCOCC2)n1: Fulfilled
FC(F)c1nc2c(OCCCN3CCOCC3)cccc2n1-c1nc(N2CCOCC2)nc(N2CCOCC2)n1: Fulfilled

Input: Check if pIC50 >= 7 (inclusive). Item: NCCCOc1cccc2c1nc(C(F)F)n2-c1nc(N2CCOCC2)nc(N2CCOCC2)n1
Output: Fulfilled

Input: Threshold query (pIC50 >= 7) on CN(C)CCNc1cccc2c1nc(C(F)F)n2-c1nc(N2CCOCC2)nc(N2CCOCC2)n1
Output: Not fulfilled

----------
Assay system: PI3-kinase p110-delta/p85-alpha (Homo sapiens, UniProt O00329)
Assay text: Inhibition of recombinant PI3K p110delta/p85alpha (unknown origin) using phosphotidylinositol as susbstrate after 1 hr by thin layer paper chromatographic analysis in presence of [gamma-33P]ATP
Outcome measure: pIC50
Answers are plain numbers, as −log10 of the molar value.

The examples below pair each entry with its known result.
FC(F)c1nc2c(OCCCN3CCOCC3)cccc2n1-c1nc(N2CCOCC2)nc(N2CCOCC2)n1: 7.74
FC(F)c1nc2c(OCCN3CCOCC3)cccc2n1-c1nc(N2CCOCC2)nc(N2CCOCC2)n1: 7.28
OCC(O)COc1cccc2c1nc(C(F)F)n2-c1nc(N2CCOCC2)nc(N2CCOCC2)n1 (stereo not given): 8.33
NCCC(=O)Nc1cccc2c1nc(C(F)F)n2-c1nc(N2CCOCC2)nc(N2CCOCC2)n1: 6.68

Consider now this further compound.
Input: Bench note: what pIC50 did OCCCOc1cccc2c1nc(C(F)F)n2-c1nc(N2CCOCC2)nc(N2CCOCC2)n1 show?
Output: 7.66

----------
Assay system: PI3K p110 beta/p85 alpha (Homo sapiens, UniProt P42338)
Assay text: Inhibition of recombinant PI3K p110beta/p85alpha (unknown origin) using phosphotidylinositol as susbstrate after 1 hr by thin layer paper chromatographic analysis in presence of [gamma-33P]ATP
Outcome measure: pIC50
Numbers only, as −log10 of the molar value.

Some compounds with recorded pIC50:
CN(C)CCC(=O)Nc1cccc2c1nc(C(F)F)n2-c1nc(N2CCOCC2)nc(N2CCOCC2)n1: 5.90
CN(C)CC(O)COc1cccc2c1nc(C(F)F)n2-c1nc(N2CCOCC2)nc(N2CCOCC2)n1 (stereo not drawn): 7.52

# input for lookup
Input: Field request: pIC50 | item: OC(COc1cccc2c1nc(C(F)F)n2-c1nc(N2CCOCC2)nc(N2CCOCC2)n1)CN1CCOCC1 (stereo not drawn)
Output: 7.28

Data origin, for the record: ChEMBL document CHEMBL2390847
